Listed here are binders together with their documented FACS Cell Binding (Fold Above Background).
- Target: T1, human prolactin receptor (PRLR) on cells (human, UniProt P16471 25-622)
- T1 construct: T47D, T47D#11 and MCF7 carry the endogenous receptor; also called hPRLR; HEK293/hPRLR
- T1 sequence: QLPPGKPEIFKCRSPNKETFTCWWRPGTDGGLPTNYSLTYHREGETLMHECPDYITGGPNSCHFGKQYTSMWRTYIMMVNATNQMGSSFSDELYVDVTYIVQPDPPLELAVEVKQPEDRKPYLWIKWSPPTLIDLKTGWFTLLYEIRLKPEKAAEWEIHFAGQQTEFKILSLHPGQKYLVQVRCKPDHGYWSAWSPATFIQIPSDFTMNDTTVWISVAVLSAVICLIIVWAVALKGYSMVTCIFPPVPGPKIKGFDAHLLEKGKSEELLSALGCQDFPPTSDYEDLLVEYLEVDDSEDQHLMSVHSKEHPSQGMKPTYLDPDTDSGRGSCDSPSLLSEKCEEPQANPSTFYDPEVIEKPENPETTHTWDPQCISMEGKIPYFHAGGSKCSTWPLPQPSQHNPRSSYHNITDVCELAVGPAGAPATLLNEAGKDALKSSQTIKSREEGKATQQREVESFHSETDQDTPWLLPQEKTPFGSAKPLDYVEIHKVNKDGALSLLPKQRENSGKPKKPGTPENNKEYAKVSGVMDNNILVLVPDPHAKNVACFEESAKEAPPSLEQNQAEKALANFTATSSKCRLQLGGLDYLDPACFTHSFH
- Protocol Summary: FACS, HEK293/hPRLR cells; note: test concentration or dose not given here
Kindly provide the numeric value in fold above background only, without the unit symbol.

A selection of reference data follows.
H1H6966N (antibody, human IgG1, V domains shown, also called H2M6966N) VH: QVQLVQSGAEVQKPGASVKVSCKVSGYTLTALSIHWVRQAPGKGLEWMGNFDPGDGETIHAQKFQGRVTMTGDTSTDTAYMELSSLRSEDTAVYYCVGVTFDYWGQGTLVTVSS VL: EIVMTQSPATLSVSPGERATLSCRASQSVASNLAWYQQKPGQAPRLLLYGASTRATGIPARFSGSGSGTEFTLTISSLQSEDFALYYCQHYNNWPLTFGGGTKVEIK = 29
H1H6790P (antibody, human IgG1, V domains shown, human IgG1 Fc (H1H)) VH: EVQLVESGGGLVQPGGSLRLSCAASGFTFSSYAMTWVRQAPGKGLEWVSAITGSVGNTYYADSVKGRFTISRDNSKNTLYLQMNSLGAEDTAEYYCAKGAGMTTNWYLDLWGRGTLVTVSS VL: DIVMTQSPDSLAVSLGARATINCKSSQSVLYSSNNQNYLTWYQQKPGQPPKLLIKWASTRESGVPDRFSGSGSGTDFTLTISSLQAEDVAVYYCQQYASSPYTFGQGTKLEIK = 37

Let us examine a further case.
Query string: Entry H1H6975N (antibody, human IgG1, V domains shown, also called H2M6975N) VH: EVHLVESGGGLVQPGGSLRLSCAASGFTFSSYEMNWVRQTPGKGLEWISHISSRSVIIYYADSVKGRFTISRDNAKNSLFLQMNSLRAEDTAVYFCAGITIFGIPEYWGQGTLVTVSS VL: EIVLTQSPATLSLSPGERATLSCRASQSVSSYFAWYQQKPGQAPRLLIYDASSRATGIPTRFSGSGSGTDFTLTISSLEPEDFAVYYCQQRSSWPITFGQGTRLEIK : reported FACS Cell Binding (Fold Above Background) = ?
Result string: 38
